# target_or_system: T1, human CD73 (huCD73) protein, antigen of the Biacore assay (human, UniProt P21589 27-547, limits assumed)
# T1 construct: also called human CD73 antigen
# T1 sequence (looked up): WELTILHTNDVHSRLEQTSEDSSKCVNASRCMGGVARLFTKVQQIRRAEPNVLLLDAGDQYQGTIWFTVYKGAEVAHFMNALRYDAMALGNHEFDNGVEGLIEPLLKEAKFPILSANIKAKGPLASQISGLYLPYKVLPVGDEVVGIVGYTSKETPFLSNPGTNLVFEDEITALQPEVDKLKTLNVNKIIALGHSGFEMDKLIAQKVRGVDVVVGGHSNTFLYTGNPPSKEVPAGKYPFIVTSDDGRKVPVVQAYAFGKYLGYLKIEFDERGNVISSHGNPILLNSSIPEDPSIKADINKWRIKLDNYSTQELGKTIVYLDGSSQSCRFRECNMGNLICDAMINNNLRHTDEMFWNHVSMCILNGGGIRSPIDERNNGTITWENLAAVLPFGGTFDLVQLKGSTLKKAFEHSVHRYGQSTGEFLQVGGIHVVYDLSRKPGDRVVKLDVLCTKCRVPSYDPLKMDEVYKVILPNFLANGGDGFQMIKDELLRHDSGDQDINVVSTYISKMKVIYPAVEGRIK
# procedure_details: SPR Biacore T200; antibody captured on Protein A chip, CD73 in flow; 1:1 Langmuir
List of Kd values.
# unit: nM | format: bare number

Please review the entries below; each comes with its answer.
Hab108.23 (antibody, V domains shown, VL2 + VH3; full-length antibody) VH: EVTLKESGPVLVKPTETLTLTCTVSGFSLSSYGIQWVRQPPGKLLEWLGVIWSGGSADYNAAFISRLTISKDTSKSQVVLTMTNMDPVDTATYYCAGQYGSVWGQGTLVTVSS VL: DIQMTQSPSSLSASVGDRVTITCRASQDIGDRLNWLQQKPGKAIKRLIYATSSLDSGVPSRFSGSGSGTEYTLTISSLQPEDFATYYCLQYAGSWTFGGGTKVEIK	0.913
Hab127.33 (antibody, V domains shown, VL3 + VH3; recombined with human heavy and light constant regions) VH: EVQLVQSGAEVKKPGASVKVSCKASGYTFTAYFMNWVMQAPGQGLEWIGRIYHNNGDTFYSQKFKGRATLTVDKSTSTVYMELSSLRSEDTAVYYCATSYVGDWGQGTTVTVSS VL: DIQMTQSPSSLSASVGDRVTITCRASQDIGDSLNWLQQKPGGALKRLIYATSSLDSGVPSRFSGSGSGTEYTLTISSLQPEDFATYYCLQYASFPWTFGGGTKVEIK	0.211
Hab108.63 (antibody, V domains shown, VL6 + VH3; full-length antibody) VH: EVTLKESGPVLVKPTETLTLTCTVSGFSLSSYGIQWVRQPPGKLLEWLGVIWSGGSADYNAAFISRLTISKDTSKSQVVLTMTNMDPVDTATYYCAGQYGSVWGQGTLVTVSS VL: DIQMTQSPSSLSASVGDRVTITCRASQDIGDRLNWLQQKPGGAIKRLIYATSSLDSGVPKRFSGSGSGTEYTLTISSLQPEDFATYYCLQYAGSWTFGGGTKVEIK	0.513
CPX006 (antibody CPX-006 disclosed in patent application WO2018013611) (antibody, V domains shown) VH: QVQLVQSGAEVEKPGASVKVSCKASGYTFTSYWITWVRQAPGQGLEWMGDIYPGSGNTNYNEKFKTRVTITADKSTSTAYMELSSLRSEDTAVYYCAKEGGLTTEDYALDYWGQGTLVTVSS VL: EIVLTQSPATLSLSPGERATLSCRASKNVSTSGYSYMHWYQQKPGQAPRLLIYLASNLESGIPPRFSGSGYGTDFTLTINNIESEDAAYYFCQHSRELPFTFGQGTKVEIKR	1.85

Shift focus to the following entry.
Task item: What value of measured Kd is listed for Hab110.24 (antibody, V domains shown, VL2 + VH4; recombined with human heavy and light constant regions) VH: EVQLVQSGAEVKKPGASVKVSCKASGYTFTSYTMHWVRQAPGQRLEWIGYINPNSFYIEYNQKFKDKATLTADTSASTAYMELSSLRSEDTAVYYCARGDYDLFYDMDNWGQGTTVTVSS VL: DIQMTQSPSSLSASVGDRVTITCRASQDIGNSLNWLQQKPGKAIKRLIYATFRLDSGVPSRFSGSRSGTEYTLTISSLQPEDFATYYCQQYASFPWTFGGGTKVEIK ?
Reply: 0.188
